parameter.measured: melting point (°C)

>>> recorded_number("Cc1ccc2c(N=[N+]=[N-])c(C(=O)O)cnc2n1")
198
>>> recorded_number("CN(C)Cc1ccccc1-c1ccc(N2CCc3c(C(F)(F)F)nn(-c4cccc(C(N)=O)c4)c3C2=O)cc1")
259

* * *

Recorded melting point by entry

Example results:
>>> result("Cc1nnc(NC(=O)c2sccc2S(=O)(=O)Nc2onc(C)c2Cl)s1")
"192 to 194 °C"
>>> result("CN(Cc1cc2c(=O)c(C(=O)NCc3ccc(Cl)cc3)cn(C)c2o1)CC(O)c1ncccn1 (single isomer, unassigned; (+))")
"127 to 129 °C"
>>> result("O=C(O)Cc1nc(-c2ccc(F)cc2)oc1-c1ccoc1")
"208 to 209 °C"
>>> result("CNC1CCN(c2c(F)c(N)c3c(=O)c(C(=O)O)cn(C4CC4)c3c2C)C1 (stereo not given)")
"200 to 202 °C"
>>> result("N#CN=C(Nc1cccnc1)NC(NC(=O)c1ccc(Cl)cc1)C(F)(F)F (stereo not given)")
"136 to 138 °C"
>>> result("CC(=O)OCC(COC(C)=O)NC(=O)c1cc(NC(=O)CCl)cc(C(=O)NC(COC(C)=O)COC(C)=O)c1")
"135 to 137 °C"

Consider the compound shown here: COc1ccc(N2CCN(CCCCc3ccc(C4CCC(=O)N4)cc3)CC2)cc1 (stereo not given) What is its recorded melting point?
155 to 156 °C

Consider the compound shown here: O=S1(=O)N=C2CCCN2c2ccc(Oc3cccc(-c4ccco4)c3)cc21 What is its recorded melting point?
186 to 189 °C

Consider the compound shown here: O=c1[nH]ncc2c1c(O)nc1cc(Cl)cc(Cl)c12 What is its recorded melting point?
> 350 °C

* * *

parameter.measured: melting point

>>> result("CCOC(=O)C(CC=Cc1ccccc1)(NC(C)=O)C(=O)OCC")
"70 to 75 °C"
>>> result("COc1ccccc1-c1[nH]c2cccc3c2c1CCNC3=O")
"254 to 255 °C"
>>> result("COc1cccc2c1CCC1CCC(=O)N(C)CC21 (stereo unspecified)")
"123 to 124 °C"
>>> result("O=C(O)c1cn(Cc2ccccc2)c2cc(N3CCNCC3)c(F)cc2c1=O")
"250 to 253 °C"
>>> result("CC(=O)c1nc2cc(Cl)ccc2cc1OCc1ccccc1")
"76 to 77 °C"

Consider the molecule shown here: Cc1nccn1-c1nc(-c2ccc(Cl)cc2)c(CCC#N)o1 What is its recorded melting point?
163 to 164 °C

* * *

parameter.measured: melting point

Example results:
>>> result("COc1nc(Cl)nc(NC#N)n1")
"> 260 °C"
>>> result("O=C(O)c1ccc(NCCCCCc2ccccc2)cc1")
"141 to 143 °C"
>>> result("CC(C)(C)COc1cccc(C[C@@H](NC(=O)c2ccc(F)c3ccccc23)[C@@H](O)c2cccc(Cl)c2)c1 (racemic)")
"165 to 166 °C"
>>> result("Cc1ccc(-c2ccc(S(N)(=O)=O)cc2)n1-c1ccc(F)cc1")
"147 to 148 °C"

Consider the compound shown here: CCOC(=O)c1[nH]c2sc(Cl)cc2c1Cl What is its recorded melting point?
166 to 167 °C

Consider the compound shown here: O=C(COc1cc(-c2ccsc2)nc2ccccc12)N1CCOCC1 What is its recorded melting point?
183 °C

Consider the compound shown here: CCc1nnc2c(NC(C)C)nc3ccccc3n12 What is its recorded melting point?
222 to 224 °C

Consider the compound shown here: ON=Cc1ccccc1-c1ccc2c(c1C=NO)OCO2 What is its recorded melting point?
227 to 229 °C

Consider the compound shown here: Cc1ccc(Cn2nc(CNC(=O)NC(C)(C)C)cc2-c2ccc(Cl)c(Cl)c2)cc1Cl What is its recorded melting point?
181 °C

Consider the compound shown here: Fc1ccc(Cn2c(NC3CCN(CCSc4ncccn4)CC3)nc3ccccc32)cc1 What is its recorded melting point?
146 to 148 °C

* * *

parameter.measured: melting point

Example results:
>>> result("Cc1ccc(C(=O)CNC(=O)c2ccc(C(F)(F)F)cc2)s1")
"182 to 183 °C"
>>> result("CNc1nc(-c2cccc(CCc3ccccc3)c2)c2cc(OC)c(OC)cc2n1")
"95 to 97 °C"

Consider the compound shown here: CCS(=O)(=O)/C=C/c1ccc2[nH]cc(C3CCN(C)CC3)c2c1 What is its recorded melting point?
98 to 102 °C

Consider the compound shown here: CC(C)CC(O)(Cn1ccnn1)c1ccccc1 (centres undefined) What is its recorded melting point?
94 to 95 °C

Consider the compound shown here: Cc1c(O)ccc(Cl)c1N What is its recorded melting point?
143 to 144 °C

* * *

Recorded melting point by entry

>>> result("CS(=O)(=O)c1ccc(-c2oc(C(c3ccccc3)c3ccccc3)nc2-c2ccc(F)cc2)cc1")
"155 to 156 °C"
>>> result("CCNc1ccc2nnc(-c3ncc([N+](=O)[O-])n3C)n2n1")
"258 to 263 °C"
>>> result("CCOC(=O)c1csc(Cc2ccc(NC(=O)/C=C/c3cnn(C)c3-c3ccc(F)cc3)cc2)n1")
"189 to 190 °C"
>>> result("O=c1[nH]c(=O)n(C2CC(Cl)C(CBr)O2)cc1C=CBr (centres undefined)")
"149 °C"
>>> result("C=CC(=O)OCCCCCCN(C)c1ccc(C=Cc2ccc(S(C)(=O)=O)cc2)cc1")
"88 to 90 °C"
>>> result("O=Cc1cc(C(F)(F)F)ccc1Sc1ccccc1F")
"130 to 132 °C"
>>> result("NC(=S)c1cccc2nnsc12")
"129 to 131 °C"
>>> result("Cc1ccccc1NC(=O)Nc1ccc(CC(=O)NC2(c3cc(CCC(=O)O)on3)CCCC2)cc1")
"195 to 197 °C"
>>> result("CC1(C)CON(Cc2ccc(N)cc2Br)C1=O")
"109 to 111 °C"
>>> result("C(=C(c1ccccc1)c1ccccc1)c1ccc2c(c1)Sc1cc(C=C(c3ccccc3)c3ccccc3)ccc1N2c1ccccc1")
"232 to 237 °C"

Consider the molecule shown here: CC(C)(C)OC(=O)C1CCCC(c2ccccc2)N1 (centres undefined) What is its recorded melting point?
68 °C

Consider the molecule shown here: CCCCCCCCCCCCCCCCS[C@H]1CCCO[C@H]1CO (relative stereo) What is its recorded melting point?
52 to 53 °C

Consider the molecule shown here: CC(C)c1cc(C(C)(C)C)cc(Br)c1OCc1ccccc1 What is its recorded melting point?
47 to 49 °C

Consider the molecule shown here: CC12CCC3c4ccc(O)cc4CC(O)C3C1CCC2O (centres undefined) What is its recorded melting point?
254 to 257 °C

Consider the molecule shown here: COC(=O)C(=[N+]=[N-])c1ccc(S(C)(=O)=O)c(Cl)c1 What is its recorded melting point?
103 to 106 °C

* * *

Recorded melting point by entry

Example results:
>>> result("Cn1cc(C(=O)NCc2ccc(Cl)cc2)c(=O)c2cc(C#CCO)sc21")
"206 to 208 °C"
>>> result("CSC(Cc1ccc2oc(Cc3nc(-c4cccc(C)c4)oc3C)cc2c1)C(=O)O (stereo unspecified)")
"125 to 127 °C"
>>> result("O=Cc1ccc(-c2noc(-c3ccc(C(F)(F)F)cc3)n2)cc1")
"145 to 146 °C"
>>> result("Cc1ccc(C(=O)O)c(OCc2ccc(OCCc3nc(-c4ccccc4)oc3C)cc2)c1")
"116 to 118 °C"
>>> result("CC(C)(C)c1cc(C(=O)c2cccnc2Cl)cc(C(C)(C)C)c1O")
"135 to 137 °C"

Consider the compound shown here: COc1ccc(OC)c(COc2ccc(S(=O)(=O)c3ccc(C)nc3Nc3c(C)cc(C)cc3C)cc2)c1 What is its recorded melting point?
128 to 130 °C

Consider the compound shown here: CSCCCn1c(C)c(C(=O)c2cccc(Cl)c2Cl)c2cccc(Br)c21 What is its recorded melting point?
119 °C

Consider the compound shown here: S=C(NCCCCN(Cc1ccc(Cl)c(Cl)c1)c1ccc(Br)cn1)NCCCc1c[nH]cn1 What is its recorded melting point?
63 to 67 °C

Consider the compound shown here: COc1ccc(COc2ccccc2-c2cccc(N)c2)cc1 What is its recorded melting point?
68 to 70 °C

Consider the compound shown here: c1cc(C2CCCCC2)ccc1N=C1NCCCN1 What is its recorded melting point?
179 to 181 °C

Consider the compound shown here: CC(=O)SCCC1(C)C(=O)N2CCCC(C(=O)OC(C)(C)C)N2C1=O (stereo unspecified) What is its recorded melting point?
67 to 70 °C

* * *

Recorded melting point by entry

>>> result("CC(C)OC(=O)Nc1ccc(-c2ccnc3c(C(=O)c4cccs4)cnn23)s1")
"210 to 215 °C"
>>> result("CCCC(O)c1cccc(NC(=O)OCc2ccccc2)c1 (stereo not drawn)")
"103 to 106 °C"
>>> result("CSc1cnc2cc(-c3ccccc3)sc2c1O")
"> 325 °C"

Consider the compound shown here: COc1ccc(-n2nccc2-c2nn(-c3cccc(C(F)(F)F)c3)ccc2=O)cc1 What is its recorded melting point?
173 to 174 °C

Consider the compound shown here: CC(C)C[C@H](O)[C@H](O)[C@H](CC1CCCCC1)NC(=O)OC(C)(C)C What is its recorded melting point?
128 to 130 °C

Consider the compound shown here: O=c1c2ccccc2nc(-c2cc(-c3ccccc3)c(N3CCOCC3)s2)n1-c1ccccc1 What is its recorded melting point?
218 to 220 °C

Consider the compound shown here: COc1cc2c(c(Cl)c1Cl)CCCC2=O What is its recorded melting point?
150 to 151 °C

Consider the compound shown here: CC1(C)c2c(Cl)cccc2S(=O)(=O)N1CC=O What is its recorded melting point?
156 °C
